Ref: paper PMC9409043

Entries and their % of ABTS• reduction ± SD values follow.
# Procedure Details: ABTS free radical scavenging assay
# Setup Conditions: 30 µM, 5 min

> print(dat)
                                   compound  endpoint.value
1  O=S(=O)(c1ccccc1)n1ccc2c(OCCNCCC3CCN(Cc4ccccc4)CC3)cccc21            5±1%
2  O=S(=O)(c1ccccc1)n1ccc2c(OCCNCC3CCN(Cc4ccccc4)CC3)cccc21            8±1%
3  O=c1[nH]c2c(OCCNCCC3CCN(Cc4ccccc4)CC3)cccc2n1Cc1ccccc1           10±1%

Now take the following compound into account.
Challenge: Field request: % of ABTS• reduction ± SD | item: "O=S(=O)(c1ccccc1)N1CCc2c(OCCNCC3CCN(Cc4ccccc4)CC3)cccc21"
Response given: 10±0%
